biological target: T1, recombinant soluble human GARP-TGFβ1 complex (human, UniProt Q14392 20-628; P01137 30-390); assay: SPR (Biacore), hGARP-TGFβ1 immobilised
T1 construct: co-expressed in HEK293E, purified by the Strep-Tag; TGFβ consists of LAP and mature TGFβ; also called shGARP-TGFβ; rhGARP-TGFβ
T1 sequence (Q14392 other isoform, or with tags, fused parts or gaps limits assumed, chain 1 of 2): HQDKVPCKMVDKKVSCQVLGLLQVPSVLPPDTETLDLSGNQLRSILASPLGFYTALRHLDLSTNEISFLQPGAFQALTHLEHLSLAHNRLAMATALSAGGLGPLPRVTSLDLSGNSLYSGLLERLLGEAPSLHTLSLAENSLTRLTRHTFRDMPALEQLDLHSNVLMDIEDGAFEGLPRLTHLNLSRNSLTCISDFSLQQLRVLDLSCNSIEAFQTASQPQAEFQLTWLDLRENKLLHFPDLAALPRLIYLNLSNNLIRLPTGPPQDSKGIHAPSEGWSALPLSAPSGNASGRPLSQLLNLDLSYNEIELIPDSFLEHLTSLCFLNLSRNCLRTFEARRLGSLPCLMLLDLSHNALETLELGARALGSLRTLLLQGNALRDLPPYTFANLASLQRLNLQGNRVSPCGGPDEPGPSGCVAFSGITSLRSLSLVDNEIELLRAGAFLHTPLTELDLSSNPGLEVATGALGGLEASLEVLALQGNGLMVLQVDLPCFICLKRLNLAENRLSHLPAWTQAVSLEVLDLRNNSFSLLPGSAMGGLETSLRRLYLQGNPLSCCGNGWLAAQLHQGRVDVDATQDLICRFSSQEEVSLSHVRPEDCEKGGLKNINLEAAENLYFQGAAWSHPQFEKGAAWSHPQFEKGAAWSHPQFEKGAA
T1 sequence (P01137 30-390 limits assumed, chain 2 of 2): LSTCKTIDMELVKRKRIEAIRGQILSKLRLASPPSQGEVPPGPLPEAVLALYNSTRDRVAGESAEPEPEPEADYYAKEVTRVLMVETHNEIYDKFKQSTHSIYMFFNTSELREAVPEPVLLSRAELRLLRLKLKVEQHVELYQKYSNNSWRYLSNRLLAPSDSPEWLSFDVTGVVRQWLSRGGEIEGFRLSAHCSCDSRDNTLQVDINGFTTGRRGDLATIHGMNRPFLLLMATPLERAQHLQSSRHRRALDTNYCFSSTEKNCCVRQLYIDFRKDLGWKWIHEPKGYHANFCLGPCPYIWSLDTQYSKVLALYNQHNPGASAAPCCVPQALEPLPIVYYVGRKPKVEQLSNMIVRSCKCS
assay-endpoint: fold improvement of kd (reference LHG-10)

LHG-10 (antibody, human IgG1, V domains shown, llama-derived V regions in a full human IgG1) VH: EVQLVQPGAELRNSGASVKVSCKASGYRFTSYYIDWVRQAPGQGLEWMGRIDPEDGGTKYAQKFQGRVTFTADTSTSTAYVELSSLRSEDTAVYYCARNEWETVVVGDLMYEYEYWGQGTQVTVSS VL: DIQMTQSPTSLSASLGDRVTITCQASQSISSYLAWYQQKPGQAPKLLIYGASRLQTGVPSRFSGSGSGTSFTLTISGLEAEDAGTYYCQQYDSLPVTFGQGTKVELK
1 fold

Continue with the binder presented below.
Item LHG-10.4 (antibody, human IgG1, V domains shown, VK-shuffled variant of LHG-10, human IgG1) VH: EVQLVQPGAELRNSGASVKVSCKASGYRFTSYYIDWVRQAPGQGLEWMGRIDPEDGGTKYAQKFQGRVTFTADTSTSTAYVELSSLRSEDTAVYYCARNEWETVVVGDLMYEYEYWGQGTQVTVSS VL: DIQMTQSPSSLSASLGDRVTITCQASQSISSYLAWYQQKPGQAPKLLIYGTSRLKTGVPSRFSGSGSGTSFTLTISGLEAEDAGTYYCQQYYSAPVTFGQGTKVELK : provide fold improvement of kd (reference LHG-10)
2.4 fold
